Origin of values: ChEMBL document CHEMBL6153037

# method-summary: Cytotoxicity against human MCF-10A cells assessed as inhibition of cell viability incubated for 48 hrs by MTT assay
# Format: toxicity, cell-based
quantity-name: IC50 at 48 h (µM)

>  <chem-smiles>
OC[C@H]1O[C@@H](Oc2ccc(COc3cccc4cccnc34)cc2)[C@H](O)[C@@H](O)[C@@H]1O

>  <quantity-name>
IC50 at 48 h

>  <val>
4.13

$$$$

----------
# Tested on: A549
# method-summary: Cytotoxicity against CuCl2-treated human A549 cells assessed as inhibition of cell viability incubated for 48 hrs by MTT assay
# Format: functional, cell-based
# experimental-parameters: A549, 48 h

>  <chem-smiles>
CC1(C)OB(c2ccc(C[n+]3cccc4cccc(O)c43)cc2)OC1(C)C.[Br-]

>  <IC50, µM>
3.48

$$$$

----------
# method-summary: Lipophilicity, logP of compound
# Assay type: physicochemical
# experimental-parameters: octanol/water; read-out: logP

>  <chem-smiles>
OC[C@H]1O[C@@H](Oc2ccc(C[n+]3cccc4cccc(O)c43)cc2)[C@H](O)[C@@H](O)[C@@H]1O.[Cl-]

>  <logP>
2.93

$$$$

----------
# method-summary: Solubility of compound in double distilled H2O
# Assay type: physicochemical
# experimental-parameters: double distilled water
Catalogue of solubility values
quantity-name: solubility (µg/mL)

>  <chem-smiles>
OC[C@H]1O[C@@H](Oc2ccc(C[n+]3cccc4cccc(O)c43)cc2)[C@H](O)[C@@H](O)[C@@H]1O.[Cl-]

>  <val>
35.5

$$$$
>  <chem-smiles>
OC[C@H]1O[C@@H](Oc2ccc(COc3cccc4cccnc34)cc2)[C@H](O)[C@@H](O)[C@@H]1O

>  <val>
17.3

$$$$

----------
Catalogue of selectivity ratio values
# method-summary: Selectivity index, ratio of inhibition of DNA synthesis in human MCF-10A cells to inhibition of DNA synthesis in human MDA-MB-231 cells
# Type: toxicity, cell-based
# experimental-parameters: MCF-10A cells and MDA-MB-231 cells
quantity-name: selectivity ratio

>  <chem-smiles>
OC[C@H]1O[C@@H](Oc2ccc(C[n+]3cccc4cccc(O)c43)cc2)[C@H](O)[C@@H](O)[C@@H]1O.[Cl-]

>  <quantity-name>
selectivity ratio

>  <val>
5.7

$$$$
>  <chem-smiles>
OC[C@H]1O[C@@H](Oc2ccc(COc3cccc4cccnc34)cc2)[C@H](O)[C@@H](O)[C@@H]1O

>  <quantity-name>
selectivity ratio

>  <val>
2.3

$$$$

----------
# method-summary: Lipophilicity, logD of compound at pH 7.4
# Assay type: physicochemical
# experimental-parameters: buffer, read-out: logD
quantity-name: logD

>  <chem-smiles>
OC[C@H]1O[C@@H](Oc2ccc(C[n+]3cccc4cccc(O)c43)cc2)[C@H](O)[C@@H](O)[C@@H]1O.[Cl-]

>  <val>
1.72

$$$$

----------
# method-summary: Induction of apoptosis in human MCF-10A cells assessed as viable cells at 0.4 uM incubated for 24 hrs by Annexin V-FITC/PI staining based flow cytometry (reference value: 92.5 %)
# Format: toxicity, cell-based
# experimental-parameters: read-out: Activity

>  <chem-smiles>
CC1(C)OB(c2ccc(C[n+]3cccc4cccc(O)c43)cc2)OC1(C)C.[Br-]

>  <unit-spec>
%

>  <viability at 24 h, 0.4 µM>
94.9

$$$$

----------
# method-summary: Cytotoxicity against human MCF-10A cells assessed as cell survival at 10 uM incubated for 48 hrs by MTT assay relative to control
# Type: toxicity, cell-based
# experimental-parameters: read-out: Survival
quantity-name: viability at 48 h, 10 µM (%)

>  <chem-smiles>
CC1(C)OB(c2ccc(C[n+]3cccc4cccc(O)c43)cc2)OC1(C)C.[Br-]

>  <val>
86

$$$$
